Tested on: MALME-3M melanoma
Assay: NCI tumour cell line growth inhibition, 48 h; in the data active = GI50 below about 0.43 µM; inactive = the rest
Use one of these outcomes when replying: YES for active, NO for inactive

Previously resolved entries follow.
COc1cc(C[C@H]2c3cc(OC)c(OC)cc3CCN2C)c(Oc2cc3c(cc2OC)-c2c(OC)c(OC)cc4c2[C@H](C3)N(C)CC4)cc1OC; NO
COc1cc([N+](=O)[O-])c(OC)cc1-c1nc2sc(Cl)cn2c1/C(N)=N/C(=N)N; NO
COc1ccc2c(c1)c(=O)oc1cc(OC/C(C)=N\O)ccc12; NO
COc1cc2c(c(OC)c1OC)-c1ccc(SC)c(=O)cc1C(CO)C2 (stereo unspecified); YES
COc1ccc(-c2nc(-c3nc4ccc(OC)cc4[nH]3)c3ccccn23)cc1; NO

Status in this test for CC1CCC(NC(=O)N(CCCl)N=O)CC1 (stereo unspecified) ?
NO

Would you mind telling me which call this test gave `FC(F)(F)c1ccc(Nc2nc(-c3c(C(F)(F)F)nc4ccccn34)cs2)cc1` ?
YES

What did the test return for `CN(O)c1nc(N(C)O)nc(N2CCOCC2)n1` ?
NO

Recorded call for `CC/C=C1/C(=O)C=C[C@@H]1C/C=C\CCCC(=O)OC` ?
NO

Could you please tell me the result logged for `COC(=O)c1nc(-c2ccccc2)oc1S(=O)(=O)Cc1ccccc1` in this assay?
NO

# outcome recorded in this test, key = `C(#Cc1ccccc1C#Cc1cccs1)c1cccs1`
NO
